Assay: AUC (0 to infinity) in Sprague-Dawley rat at 10 mg/kg, ip measured upto 24 hrs by LC-MS/MS analysis
Assay type: ADME, organism-based
Parameters: time < 24 hrs, dose 10 mg/kg, route ip
Conditions: in vivo
Consider the following molecules and their measured AUC(0-inf) readings.
The reply should be a number in ng·h/mL, with the unit left off.

C#CCN(CCCC(=O)Nc1cccc2c1CN(C1CCC(=O)NC1=O)C2=O)CCN(C)c1cc(OC)c(Nc2nccc(-c3cn(C)c4ccccc34)n2)cc1NC(=O)C=C (configuration not stated) : 973

Challenge: Supply reported AUC(0-inf) belonging to this molecule: C#CCN(CCC(=O)Nc1cccc2c1CN(C1CCC(=O)NC1=O)C2=O)CCN(C)c1cc(OC)c(Nc2nccc(-c3cn(C)c4ccccc34)n2)cc1NC(=O)C=C (configuration not stated)
Response given: 1610

---

Target: von Hippel-Lindau disease tumor suppressor/Epidermal growth factor receptor (Homo sapiens, UniProt P00533+P40337, L858R/T790M)
Sequence (P00533 25-1210 T790M/L858R limits assumed, stated change not applied): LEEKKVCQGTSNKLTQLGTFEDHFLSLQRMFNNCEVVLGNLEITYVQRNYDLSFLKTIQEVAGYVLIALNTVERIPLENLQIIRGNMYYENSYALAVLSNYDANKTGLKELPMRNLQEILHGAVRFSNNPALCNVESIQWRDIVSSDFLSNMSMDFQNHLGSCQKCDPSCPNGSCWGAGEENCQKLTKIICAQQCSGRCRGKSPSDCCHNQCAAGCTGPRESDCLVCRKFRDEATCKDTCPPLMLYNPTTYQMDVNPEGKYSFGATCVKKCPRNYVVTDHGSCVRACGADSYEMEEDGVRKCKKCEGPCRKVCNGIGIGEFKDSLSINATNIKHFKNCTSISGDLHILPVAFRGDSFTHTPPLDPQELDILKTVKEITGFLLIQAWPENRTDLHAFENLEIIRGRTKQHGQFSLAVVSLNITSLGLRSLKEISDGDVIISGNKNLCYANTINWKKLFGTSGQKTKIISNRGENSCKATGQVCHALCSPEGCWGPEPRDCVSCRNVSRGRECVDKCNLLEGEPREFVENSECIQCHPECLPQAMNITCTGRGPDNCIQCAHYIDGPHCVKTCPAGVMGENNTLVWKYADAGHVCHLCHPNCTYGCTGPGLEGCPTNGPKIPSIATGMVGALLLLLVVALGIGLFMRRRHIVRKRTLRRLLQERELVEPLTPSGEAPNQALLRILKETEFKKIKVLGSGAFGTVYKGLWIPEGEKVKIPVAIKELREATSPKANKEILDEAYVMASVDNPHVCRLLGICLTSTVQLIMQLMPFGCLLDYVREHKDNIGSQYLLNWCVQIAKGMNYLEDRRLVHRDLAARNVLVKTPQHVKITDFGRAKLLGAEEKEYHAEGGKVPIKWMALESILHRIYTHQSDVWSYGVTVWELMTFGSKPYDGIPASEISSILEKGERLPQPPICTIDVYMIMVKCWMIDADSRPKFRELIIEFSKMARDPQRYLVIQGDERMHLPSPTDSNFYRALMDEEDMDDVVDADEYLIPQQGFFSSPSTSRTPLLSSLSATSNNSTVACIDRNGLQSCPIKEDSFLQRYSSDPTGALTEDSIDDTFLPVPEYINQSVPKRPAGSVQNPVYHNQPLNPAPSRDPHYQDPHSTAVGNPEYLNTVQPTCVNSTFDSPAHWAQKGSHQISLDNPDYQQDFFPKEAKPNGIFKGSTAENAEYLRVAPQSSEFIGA
Sequence (P40337 whole entry, stated change not applied): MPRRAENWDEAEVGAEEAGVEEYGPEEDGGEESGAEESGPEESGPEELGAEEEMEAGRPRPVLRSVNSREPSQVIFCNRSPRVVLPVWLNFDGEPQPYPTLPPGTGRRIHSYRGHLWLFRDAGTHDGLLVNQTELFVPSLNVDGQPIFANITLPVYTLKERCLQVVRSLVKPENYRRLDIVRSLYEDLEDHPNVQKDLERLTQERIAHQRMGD
Test: Protac activity at VHL/EGFR L858R/T790M mutant in human NCI-H1975 cells assessed as induction of degradation of EGFR incubated for 24 hrs in presence of afatinib by immunoblot analysis
Quantity Measured: pEC50
Note on pEC50: it is the negative log10 of concentration, concentration in mol/L.

Challenge: Supply reported pEC50 belonging to this molecule: "Cc1ccsc1-c1ccc(CNC(=O)[C@@H]2C[C@@H](O)CN2C(=O)[C@@H](NC(=O)CCCCCOCCCCOCCCCOc2cc3ncnc(Nc4ccc(F)c(Cl)c4)c3cc2NC(=O)/C=C/CN(C)C)C(C)(C)C)cc1"
Response given: 6.67

---

Assay: Cmax in Sprague-Dawley rat at 10 mg/kg, ip measured upto 24 hrs by LC-MS/MS analysis
Format: ADME, organism-based
Set-up: time < 24 hrs, dose 10 mg/kg, route ip
Conditions: in vivo
Consider the following compounds and their measured Cmax readings.
The reply should be a number in ng/mL, with the unit left off.

C#CCN(CCC(=O)Nc1cccc2c1CN(C1CCC(=O)NC1=O)C2=O)CCN(C)c1cc(OC)c(Nc2nccc(-c3cn(C)c4ccccc34)n2)cc1NC(=O)C=C (configuration not stated) : 197

Attention now turns to another entry.
Challenge: Supply reported Cmax belonging to this compound: C#CCN(CCCC(=O)Nc1cccc2c1CN(C1CCC(=O)NC1=O)C2=O)CCN(C)c1cc(OC)c(Nc2nccc(-c3cn(C)c4ccccc34)n2)cc1NC(=O)C=C (configuration not stated)
Response given: 128

---

Assay: Clearance in Sprague-Dawley rat at 1 mg/kg, iv measured upto 24 hrs by LC-MS/MS analysis
Type: ADME, organism-based
Conditions: Sprague-Dawley, in vivo
Quantity Measured: clearance (mL/min/kg)
The reply should be a number in mL/min/kg, with the unit left off.

Challenge: Supply reported clearance belonging to this molecule: C#CCN(CCC(=O)Nc1cccc2c1CN(C1CCC(=O)NC1=O)C2=O)CCN(C)c1cc(OC)c(Nc2nccc(-c3cn(C)c4ccccc34)n2)cc1NC(=O)C=C (stereo unspecified)
Response given: 37.1

---

Experiment: Half life in Sprague-Dawley rat at 1 mg/kg, iv measured upto 24 hrs by LC-MS/MS analysis
Type: ADME, organism-based
Conditions: in vivo
Quantity Measured: half-life (h)
The reply should be a number in h, with the unit left off.

C#CCN(CCCC(=O)Nc1cccc2c1CN(C1CCC(=O)NC1=O)C2=O)CCN(C)c1cc(OC)c(Nc2nccc(-c3cn(C)c4ccccc34)n2)cc1NC(=O)C=C (configuration not stated) : 2.64

Challenge: Supply reported half-life belonging to this compound: C#CCN(CCC(=O)Nc1cccc2c1CN(C1CCC(=O)NC1=O)C2=O)CCN(C)c1cc(OC)c(Nc2nccc(-c3cn(C)c4ccccc34)n2)cc1NC(=O)C=C (configuration not stated)
Response given: 2.29

Taken from ChEMBL document CHEMBL5113438.
